As shown below, each of these compounds has a reported drug sensitivity score value.
tested on: HSC1 (primary human Schwann cells); experiment: drug sensitivity score (DSS, CellTox-Green cytotoxicity, 72 h) (DSS (dimensionless)); higher = more cytotoxic; extreme values may be limits of the assay
Output spec: single numeric token, no unit.

Examples with their reported drug sensitivity score follow.
// query Give drug sensitivity score for the following compound: CO[C@H]1C[C@@H]2CC[C@@H](C)[C@@](O)(O2)C(=O)C(=O)N2CCCC[C@H]2C(=O)O[C@H]([C@H](C)C[C@@H]2CC[C@@H](OC(=O)C(C)(CO)CO)[C@H](OC)C2)CC(=O)[C@H](C)/C=C(\C)[C@@H](O)[C@@H](OC)C(=O)[C@H](C)C[C@H](C)/C=C/C=C/C=C/1C [Temsirolimus] (max concentration tested 100 nM)
// result 0

// query Assign drug sensitivity score to the following record: O=C(O)CCCc1ccc(N(CCCl)CCCl)cc1 [Chlorambucil] (max concentration tested 10000 nM)
// result 0

// query Identify the reported drug sensitivity score for the following entry. C[C@@]1(C(=O)Nc2ccc(F)nc2)CCCN1c1nc(Nc2cc(C3CC3)n[nH]2)c2cccn2n1 (max concentration tested 10000 nM)
// result 7.13

// query Output measured drug sensitivity score for this item: CC(=O)c1c(C)c2cnc(Nc3ccc(N4CCNCC4)cn3)nc2n(C2CCCC2)c1=O [Palbociclib] (max concentration tested 10000 nM)
// result 0

---
// query Supply recorded drug sensitivity score for N#Cc1ccc(COC[C@H]2O[C@@H](n3c(NCc4ccc(Cl)c(Cl)c4)nc4c(N)ncnc43)[C@H](O)[C@@H]2O)cc1 (max concentration tested 10000 nM) here.
// result 0
